biological target: PADI4 (Homo sapiens, UniProt Q9UM07); construct: His6; made in house; assay: COLDER inhibition assay, BAEE substrate, with or without 1 h preincubation; assay type: biochemical; conditions: peptide 0.03 µM, T=0; read-out: PADI4 activity normalised to 0.1% DMSO
Sequence (Q9UM07 whole entry): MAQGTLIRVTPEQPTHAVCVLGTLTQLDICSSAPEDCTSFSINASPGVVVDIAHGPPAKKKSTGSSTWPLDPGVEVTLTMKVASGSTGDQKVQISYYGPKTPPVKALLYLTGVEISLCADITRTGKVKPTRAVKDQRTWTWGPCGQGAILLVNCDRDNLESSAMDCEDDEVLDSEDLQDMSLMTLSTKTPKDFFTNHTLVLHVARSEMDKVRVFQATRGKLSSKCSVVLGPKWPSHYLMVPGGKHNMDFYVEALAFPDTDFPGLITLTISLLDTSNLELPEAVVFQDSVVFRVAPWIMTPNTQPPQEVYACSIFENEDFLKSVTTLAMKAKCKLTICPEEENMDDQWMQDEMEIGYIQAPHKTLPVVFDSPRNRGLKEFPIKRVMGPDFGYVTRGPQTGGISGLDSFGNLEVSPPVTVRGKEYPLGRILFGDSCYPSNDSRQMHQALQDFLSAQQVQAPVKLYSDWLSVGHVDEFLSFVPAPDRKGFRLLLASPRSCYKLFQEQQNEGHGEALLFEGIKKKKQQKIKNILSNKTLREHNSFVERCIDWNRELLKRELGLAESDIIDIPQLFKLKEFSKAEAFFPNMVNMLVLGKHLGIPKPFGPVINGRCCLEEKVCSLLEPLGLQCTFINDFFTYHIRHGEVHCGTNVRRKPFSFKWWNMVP
Where a SMILES comes first, the peptide text is derived from it. Bridges are numbered along the chain shown (N, C = ends). [ ]: non-standard residue; d: D form. Orn(fluoroacetimidoyl) = N=C(CF)NCCC[C@H](N)C(=O)O
recordedMetric: remaining activity at 0.03 µM (%)
Numeric answer only, unit % assumed.

Looking for the measured remaining activity at 0.03 µM of N=C(N)NCCC[C@@H]1NC(=O)[C@H](CCCCN)NC(=O)[C@H](CC(N)=O)NC(=O)[C@H](Cc2ccccc2)NC(=O)[C@H](CC(=O)O)NC(=O)[C@H](Cc2c[nH]c3ccccc23)NC(=O)[C@H](CC(N)=O)NC(=O)[C@H](CCCNC(=N)CF)NC(=O)[C@H](Cc2ccc(O)cc2)NC(=O)[C@H](Cc2c[nH]c3ccccc23)NC(=O)[C@@H](Cc2ccc(O)cc2)NC(=O)CSC[C@@H](C(=O)NCC(N)=O)NC1=O [cP4_10, yWY(2)NWDFNKRCG] ({CH2CO}-[dY]WY[Orn(fluoroacetimidoyl)]NWDFNKRCG-NH2; thioether N-12) , can you help? 91.3

What would you report for CC[C@H](C)[C@H](NC(=O)[C@H](Cc1c[nH]c2ccccc12)NC(=O)[C@H](CCC(=O)O)NC(=O)[C@@H]1CSCC(=O)N[C@H](Cc2ccc(O)cc2)C(=O)N[C@@H](C(C)C)C(=O)N[C@@H](Cc2ccc(O)cc2)C(=O)N[C@@H](CCCNC(=N)CF)C(=O)N[C@@H](CC(=O)O)C(=O)N1)C(=O)N[C@@H](CC(N)=O)C(=O)N[C@@H](CCCNC(=N)N)C(=O)N[C@@H](C)C(=O)NCC(N)=O [cP4_165, yVY(2)DCEWINRAG] ({CH2CO}-[dY]VY[Orn(fluoroacetimidoyl)]DCEWINRAG-NH2; thioether N-6) ? 97.8
